test: AUC in fasted nu/nu mouse at 10 mg/kg, po LC/MS/MS analysis; assay type: ADME, organism-based; parameters: dose 10 mg/kg, route oral; details: plasma
VALUE_TYPE: AUC (µM·h)

| SUBSTANCE_SMILES | EXPERIMENTAL_VALUE |
| --- | --- |
| CNC(=O)c1nn(C)c2c1C(C)(C)Cc1cnc(Nc3ccc(N4CCN(C)CC4)cc3)nc1-2.Cl | 8.29 |
| CNC(=O)c1nn(C)c2c1C(C)(C)Cc1cnc(Nc3ccc(CN4CCN(C)CC4)cc3)nc1-2.Cl | 3.37 |
| CNC(=O)c1nn(C)c2c1C(C)(C)Cc1cnc(Nc3ccc(CN(C)C)cc3)nc1-2.Cl | 1.97 |
| CNC(=O)c1nn(C)c2c1C(C)(C)Cc1cnc(Nc3ccc(OC4CCN(C)CC4)cc3)nc1-2.Cl | 2.51 |

----------
target: Cyclin-dependent kinase 2 (Homo sapiens); assay: Inhibition of CDK2/Cyclin A
VALUE_TYPE: IC50 (nM)

Example cases with answers are listed next.
| SUBSTANCE_SMILES | VALUE_TYPE | EXPERIMENTAL_VALUE |
| --- | --- | --- |
| CNC(=O)c1nn(C)c2c1C(C)(C)Cc1cnc(Nc3cccc(OC4CCN(C)CC4)c3)nc1-2 | IC50 | 47 |
| Cn1nc(C(=O)NCc2ccccc2)c2c1-c1nc(Nc3ccccc3)ncc1CC2 | IC50 | 1050 |
| CNC(=O)c1nn(C)c2c1C(C)(C)Cc1cnc(Nc3ccc(OC4CCN(C)CC4)cc3)nc1-2 | IC50 | 29 |
| CN1CCN(c2cccc(Nc3ncc4c(n3)-c3c(c(C(N)=O)nn3C)CC4)c2)CC1 | IC50 | 1 |

P: CNC(=O)c1nn(C)c2c1C(C)(C)Cc1cnc(Nc3ccc(CN(C)C)cc3)nc1-2
Q: CNC(=O)c1nn(C)c2c1C(C)(C)Cc1cnc(Nc3cccc(CN4CCOCC4)c3)nc1-2
R: CN1CCN(c2ccc(Nc3ncc4c(n3)-c3c(c(C(N)=O)nn3C)CC4)cc2)CC1
Descending sort on IC50 required. Answer format: list of labels, ordered as asked.
Q, P, R
(Q: 160 nM, P: 35 nM, R: 2 nM)

----------
system: A2780; assay: Antiproliferative activity against human A2780 cells after 72 hrs by cell Titer_Glo assay; assay type: functional, cell-based; conditions: A2780, 72 h
pIC50: −log10 of the molar value.
VALUE_TYPE: pIC50

1: CNC(=O)c1nn(C)c2c1C(C)(C)Cc1cnc(Nc3cccc(OC4CCN(C)CC4)c3)nc1-2
2: CN1CCN(c2ccc(Nc3ncc4c(n3)-c3c(c(C(N)=O)nn3C)C(C)(C)C4)cc2)CC1
3: Cn1nc(C(N)=O)c2c1-c1nc(Nc3ccccc3)ncc1CC2(C)C
Sort ascending by pIC50. List the labels, following the order given in the request.
1, 3, 2

----------
organism: Homo sapiens; experiment: Protein binding in human plasma; details: read-out: PPB (converted)
VALUE_TYPE: fraction unbound

| SUBSTANCE_SMILES | fraction unbound |
| --- | --- |
| CN1CCN(c2ccc(Nc3ncc4c(n3)-c3c(c(C(N)=O)nn3C)C(C)(C)C4)cc2)CC1.Cl | 0.01 |

P: CNC(=O)c1nn(C)c2c1C(C)(C)Cc1cnc(Nc3ccc(CN4CCN(C)CC4)cc3)nc1-2.Cl
Q: CNC(=O)c1nn(C)c2c1C(C)(C)Cc1cnc(Nc3ccc(CN(C)C)cc3)nc1-2.Cl
For this pair, P and Q , which shows a numerically higher fraction unbound? Record your answer as the label of the chosen record.
Q
(Q: 0.05, P: 0.01)

----------
target: Mast/stem cell growth factor receptor Kit (Homo sapiens, UniProt P10721)
Sequence (P10721 whole entry): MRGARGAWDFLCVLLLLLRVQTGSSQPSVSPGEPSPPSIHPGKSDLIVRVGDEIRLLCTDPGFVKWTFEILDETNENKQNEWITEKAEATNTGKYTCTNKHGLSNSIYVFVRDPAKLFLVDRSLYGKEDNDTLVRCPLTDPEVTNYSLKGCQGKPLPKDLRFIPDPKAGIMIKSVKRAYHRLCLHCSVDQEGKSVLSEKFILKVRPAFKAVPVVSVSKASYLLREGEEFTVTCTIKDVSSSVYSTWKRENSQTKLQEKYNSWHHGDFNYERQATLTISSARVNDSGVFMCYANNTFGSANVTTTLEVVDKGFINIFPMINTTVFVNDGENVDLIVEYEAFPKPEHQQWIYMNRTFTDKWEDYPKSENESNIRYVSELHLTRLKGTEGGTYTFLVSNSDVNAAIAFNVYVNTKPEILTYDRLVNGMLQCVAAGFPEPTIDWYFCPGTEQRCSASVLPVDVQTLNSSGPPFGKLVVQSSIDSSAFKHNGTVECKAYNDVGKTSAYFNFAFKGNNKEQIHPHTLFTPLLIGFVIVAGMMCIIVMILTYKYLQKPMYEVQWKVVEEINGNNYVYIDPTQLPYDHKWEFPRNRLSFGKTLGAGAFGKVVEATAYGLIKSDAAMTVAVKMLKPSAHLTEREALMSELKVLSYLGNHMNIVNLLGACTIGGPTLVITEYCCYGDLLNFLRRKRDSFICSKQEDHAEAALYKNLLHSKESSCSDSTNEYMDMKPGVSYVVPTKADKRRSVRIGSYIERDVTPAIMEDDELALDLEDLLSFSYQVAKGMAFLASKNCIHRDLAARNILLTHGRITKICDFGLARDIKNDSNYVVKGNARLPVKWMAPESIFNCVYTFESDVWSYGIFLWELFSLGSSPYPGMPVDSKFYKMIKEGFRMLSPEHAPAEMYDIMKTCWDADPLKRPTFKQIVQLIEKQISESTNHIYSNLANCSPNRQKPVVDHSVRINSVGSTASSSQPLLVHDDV
VALUE_TYPE: IC50 (nM)
Give just the number in nM; leave the unit off.

State the recorded IC50 for this entry: `CNC(=O)c1nn(C)c2c1C(C)(C)Cc1cnc(Nc3ccc(N4CCN(C)CC4)cc3)nc1-2`
668

----------
molecular target: Tyrosine-protein kinase ZAP-70 (Homo sapiens, UniProt P43403)
Sequence (P43403 whole entry): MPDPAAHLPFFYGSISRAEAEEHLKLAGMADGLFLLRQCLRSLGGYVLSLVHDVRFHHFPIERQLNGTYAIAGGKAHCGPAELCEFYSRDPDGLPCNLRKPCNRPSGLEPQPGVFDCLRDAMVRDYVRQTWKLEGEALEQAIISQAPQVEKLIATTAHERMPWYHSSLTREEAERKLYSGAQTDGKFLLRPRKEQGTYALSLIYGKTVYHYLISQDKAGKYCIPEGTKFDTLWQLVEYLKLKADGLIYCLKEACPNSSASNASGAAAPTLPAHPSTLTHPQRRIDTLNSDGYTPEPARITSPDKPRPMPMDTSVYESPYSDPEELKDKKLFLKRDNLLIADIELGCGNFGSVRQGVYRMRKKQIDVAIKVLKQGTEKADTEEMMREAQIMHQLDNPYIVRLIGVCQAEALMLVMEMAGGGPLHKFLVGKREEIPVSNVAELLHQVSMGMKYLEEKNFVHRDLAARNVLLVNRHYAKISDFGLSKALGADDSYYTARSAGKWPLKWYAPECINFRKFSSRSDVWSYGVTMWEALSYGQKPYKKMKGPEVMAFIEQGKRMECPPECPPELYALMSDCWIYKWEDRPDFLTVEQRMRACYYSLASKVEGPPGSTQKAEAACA
VALUE_TYPE: IC50

What IC50 value was documented for this compound, CNC(=O)c1nn(C)c2c1C(C)(C)Cc1cnc(Nc3ccc(N4CCN(C)CC4)cc3)nc1-2 [MILCICLIB] ?
> 10 µM

----------
assay: Clearance in fasted nu/nu mouse at 10 mg/kg, iv by LC/MS/MS analysis; type: ADME, organism-based; parameters: dose 10 mg/kg, route intravenous; conditions: in vivo
VALUE_TYPE: clearance (mL/min/kg)

Here's what some known entries look like.
| SUBSTANCE_SMILES | EXPERIMENTAL_VALUE |
| --- | --- |
| CNC(=O)c1nn(C)c2c1C(C)(C)Cc1cnc(Nc3ccc(OC4CCN(C)CC4)cc3)nc1-2.Cl | 43.7 |
| CNC(=O)c1nn(C)c2c1C(C)(C)Cc1cnc(Nc3ccc(N4CCN(C)CC4)cc3)nc1-2.Cl | 31.2 |

A: CNC(=O)c1nn(C)c2c1C(C)(C)Cc1cnc(Nc3ccc(CN(C)C)cc3)nc1-2.Cl
B: CNC(=O)c1nn(C)c2c1C(C)(C)Cc1cnc(Nc3ccc(CN4CCN(C)CC4)cc3)nc1-2.Cl
Recorded clearance values differ for A and B ; which one is higher? I would appreciate it if you answered with the label of your choice.
A

----------
target: Proto-oncogene tyrosine-protein kinase receptor Ret (Homo sapiens, UniProt P07949)
Sequence (P07949 whole entry): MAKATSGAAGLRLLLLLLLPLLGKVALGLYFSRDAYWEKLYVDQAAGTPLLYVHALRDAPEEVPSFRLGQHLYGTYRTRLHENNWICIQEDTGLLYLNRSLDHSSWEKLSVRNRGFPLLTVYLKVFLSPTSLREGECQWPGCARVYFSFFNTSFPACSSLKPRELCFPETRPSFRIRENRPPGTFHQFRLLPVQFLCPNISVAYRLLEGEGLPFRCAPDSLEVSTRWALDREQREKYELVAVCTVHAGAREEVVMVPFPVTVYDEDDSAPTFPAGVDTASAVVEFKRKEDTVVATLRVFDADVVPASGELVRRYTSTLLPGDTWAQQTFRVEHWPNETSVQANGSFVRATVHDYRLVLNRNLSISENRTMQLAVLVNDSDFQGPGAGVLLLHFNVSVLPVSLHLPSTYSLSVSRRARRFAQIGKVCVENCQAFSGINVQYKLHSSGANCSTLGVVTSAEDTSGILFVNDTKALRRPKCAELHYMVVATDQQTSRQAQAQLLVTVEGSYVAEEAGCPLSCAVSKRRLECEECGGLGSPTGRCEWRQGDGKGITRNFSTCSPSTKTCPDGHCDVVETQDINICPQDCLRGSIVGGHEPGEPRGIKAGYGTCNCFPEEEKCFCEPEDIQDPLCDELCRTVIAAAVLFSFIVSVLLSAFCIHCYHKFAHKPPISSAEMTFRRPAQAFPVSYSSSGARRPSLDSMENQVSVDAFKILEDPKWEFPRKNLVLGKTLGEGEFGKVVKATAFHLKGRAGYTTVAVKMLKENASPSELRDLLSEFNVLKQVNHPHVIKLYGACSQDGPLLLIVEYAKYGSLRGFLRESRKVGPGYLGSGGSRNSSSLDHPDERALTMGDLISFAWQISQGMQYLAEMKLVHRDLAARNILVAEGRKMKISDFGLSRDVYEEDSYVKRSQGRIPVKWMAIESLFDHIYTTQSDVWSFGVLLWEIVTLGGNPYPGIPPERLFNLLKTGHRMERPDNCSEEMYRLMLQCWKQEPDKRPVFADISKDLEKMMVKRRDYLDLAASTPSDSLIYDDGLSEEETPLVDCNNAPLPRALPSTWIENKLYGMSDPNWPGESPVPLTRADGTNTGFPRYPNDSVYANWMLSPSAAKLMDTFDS
VALUE_TYPE: IC50 (nM)
Your answer is read as nM, so omit the unit and give the number.

Quick check: IC50 of `CNC(=O)c1nn(C)c2c1C(C)(C)Cc1cnc(Nc3ccc(N4CCN(C)CC4)cc3)nc1-2` ?
1930

----------
Target: Inhibitor of nuclear factor kappa-B kinase subunit beta (Homo sapiens, UniProt O14920)
Sequence (O14920 whole entry): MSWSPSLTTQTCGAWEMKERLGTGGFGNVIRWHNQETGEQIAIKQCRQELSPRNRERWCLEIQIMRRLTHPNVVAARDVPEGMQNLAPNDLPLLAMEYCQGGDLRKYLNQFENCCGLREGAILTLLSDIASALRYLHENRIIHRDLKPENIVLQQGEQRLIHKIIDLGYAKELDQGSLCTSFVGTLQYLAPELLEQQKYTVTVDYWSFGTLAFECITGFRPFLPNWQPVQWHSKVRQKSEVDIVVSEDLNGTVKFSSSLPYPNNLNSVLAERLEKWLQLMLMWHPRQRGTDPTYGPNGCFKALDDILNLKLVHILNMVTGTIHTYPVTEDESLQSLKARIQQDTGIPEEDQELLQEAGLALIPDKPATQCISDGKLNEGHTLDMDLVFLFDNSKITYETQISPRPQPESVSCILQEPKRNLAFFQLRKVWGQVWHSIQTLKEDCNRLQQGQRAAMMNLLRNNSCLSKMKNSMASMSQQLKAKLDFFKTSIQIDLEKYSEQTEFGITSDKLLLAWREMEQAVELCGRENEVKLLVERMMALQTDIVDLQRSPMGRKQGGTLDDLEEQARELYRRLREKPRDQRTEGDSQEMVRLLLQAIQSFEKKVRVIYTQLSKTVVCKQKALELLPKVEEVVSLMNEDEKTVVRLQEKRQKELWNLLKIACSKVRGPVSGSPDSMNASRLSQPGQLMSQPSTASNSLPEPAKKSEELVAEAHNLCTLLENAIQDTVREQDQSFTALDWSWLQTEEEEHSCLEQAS
Test: Inhibition of IKK2
VALUE_TYPE: IC50

Which IC50 is reported for this compound? `CNC(=O)c1nn(C)c2c1C(C)(C)Cc1cnc(Nc3ccc(N4CCN(C)CC4)cc3)nc1-2`
> 10 µM

----------
target: Inhibitor of nuclear factor kappa-B kinase subunit epsilon (Homo sapiens); assay: Inhibition of IKKi
Sequence (Q14164 whole entry): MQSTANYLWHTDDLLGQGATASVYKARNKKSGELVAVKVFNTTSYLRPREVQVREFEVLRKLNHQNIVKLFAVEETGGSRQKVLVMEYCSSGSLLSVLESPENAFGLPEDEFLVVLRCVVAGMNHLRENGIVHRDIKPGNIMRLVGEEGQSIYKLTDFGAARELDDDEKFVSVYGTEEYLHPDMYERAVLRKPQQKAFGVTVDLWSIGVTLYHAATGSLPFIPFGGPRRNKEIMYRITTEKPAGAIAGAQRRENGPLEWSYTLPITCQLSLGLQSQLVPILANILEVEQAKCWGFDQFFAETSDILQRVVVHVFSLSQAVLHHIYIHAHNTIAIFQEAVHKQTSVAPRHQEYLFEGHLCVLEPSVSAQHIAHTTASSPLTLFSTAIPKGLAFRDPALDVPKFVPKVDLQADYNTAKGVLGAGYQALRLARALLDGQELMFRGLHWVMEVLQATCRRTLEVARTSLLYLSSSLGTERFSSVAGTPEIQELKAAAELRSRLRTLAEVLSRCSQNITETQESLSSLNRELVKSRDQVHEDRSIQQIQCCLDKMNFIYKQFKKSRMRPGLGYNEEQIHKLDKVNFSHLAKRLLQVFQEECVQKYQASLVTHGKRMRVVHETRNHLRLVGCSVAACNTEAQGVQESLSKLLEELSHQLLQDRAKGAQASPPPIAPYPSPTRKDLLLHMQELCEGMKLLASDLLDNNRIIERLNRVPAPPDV
VALUE_TYPE: IC50

Can you share its IC50? I mean this compound: `CNC(=O)c1nn(C)c2c1C(C)(C)Cc1cnc(Nc3ccc(N4CCN(C)CC4)cc3)nc1-2`
> 10 µM

----------
experiment: Solubility in 5% dextrose; format: physicochemical
VALUE_TYPE: solubility (µg/mL)

Take a look at these entries with their results.
| SUBSTANCE_SMILES | solubility (µg/mL) |
| --- | --- |
| CNC(=O)c1nn(C)c2c1C(C)(C)Cc1cnc(Nc3ccc(OC4CCN(C)CC4)cc3)nc1-2.Cl | 10000 |
| CNC(=O)c1nn(C)c2c1C(C)(C)Cc1cnc(Nc3ccc(N4CCN(C)CC4)cc3)nc1-2.Cl | 10000 |
| CNC(=O)c1nn(C)c2c1C(C)(C)Cc1cnc(Nc3ccc(CN4CCN(C)CC4)cc3)nc1-2.Cl | 10000 |

I: CNC(=O)c1nn(C)c2c1C(C)(C)Cc1cnc(Nc3ccc(CN(C)C)cc3)nc1-2.Cl
II: CN1CCN(c2ccc(Nc3ncc4c(n3)-c3c(c(C(N)=O)nn3C)C(C)(C)C4)cc2)CC1.Cl
Lower solubility: I or II ? Selection: enter the item's label.
II
(II: 3400 µg/mL, I: 10000 µg/mL)

Ref: ChEMBL document CHEMBL1151962
